- Study System: T1, 4H2873-AA
- T1 chain: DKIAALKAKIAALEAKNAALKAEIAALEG
- Protocol Summary: two-hybrid library CCmax;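 note: natural log of median RNA to DNA barcode read ratio; higher means stronger binding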
- Conditions: mean of both orientations
In this section we review reported interaction score values for a set of binders.
Keep the answer to the number alone.

Worked examples, 6 binders total:
binder="DKIAALKAENAALKAEIAALEAKIAALKG [4H2758-AA]" observed_property="interaction score" obs_value=-0.654
binder="DKIAALEAKNAALKAEIAALKAKNAALKG [4H2512-AA]" observed_property="interaction score" obs_value=-1.36
binder="DEIAALEAENAALKAKIAALKAEIAALEG [4H233-AA]" observed_property="interaction score" obs_value=-0.478
binder="DKIAALKAEIAALKAKNAALKAKNAALEG [4H2687-AA]" observed_property="interaction score" obs_value=-1.74
binder="DKIAALKAEIAALKAENAALEAKIAALKG [4H2646-AA]" observed_property="interaction score" obs_value=1.89
binder="DENAALKAENAALEAKIAALKAKIAALKG [4H1710-AA]" observed_property="interaction score" obs_value=-0.937

Dear colleague, I am looking for the recorded interaction score of the following binder: DENAALEAEIAALEAKIAALKAENAALKG [4H1068-AA]
-0.197
